# system: PI3K beta (Homo sapiens, UniProt P42338)
# Construct: for the full-length p110-b subunit are generated and fused by overlapping PCR; p85(iSH2) fusion partner (see partner chain) (N); His tag (C); made in house; host or cells: baculovirus; Tn5 (Trichoplusia ni) or TiniPro insect cells
# Sequence (P42338 with tags, fused parts or gaps limits assumed): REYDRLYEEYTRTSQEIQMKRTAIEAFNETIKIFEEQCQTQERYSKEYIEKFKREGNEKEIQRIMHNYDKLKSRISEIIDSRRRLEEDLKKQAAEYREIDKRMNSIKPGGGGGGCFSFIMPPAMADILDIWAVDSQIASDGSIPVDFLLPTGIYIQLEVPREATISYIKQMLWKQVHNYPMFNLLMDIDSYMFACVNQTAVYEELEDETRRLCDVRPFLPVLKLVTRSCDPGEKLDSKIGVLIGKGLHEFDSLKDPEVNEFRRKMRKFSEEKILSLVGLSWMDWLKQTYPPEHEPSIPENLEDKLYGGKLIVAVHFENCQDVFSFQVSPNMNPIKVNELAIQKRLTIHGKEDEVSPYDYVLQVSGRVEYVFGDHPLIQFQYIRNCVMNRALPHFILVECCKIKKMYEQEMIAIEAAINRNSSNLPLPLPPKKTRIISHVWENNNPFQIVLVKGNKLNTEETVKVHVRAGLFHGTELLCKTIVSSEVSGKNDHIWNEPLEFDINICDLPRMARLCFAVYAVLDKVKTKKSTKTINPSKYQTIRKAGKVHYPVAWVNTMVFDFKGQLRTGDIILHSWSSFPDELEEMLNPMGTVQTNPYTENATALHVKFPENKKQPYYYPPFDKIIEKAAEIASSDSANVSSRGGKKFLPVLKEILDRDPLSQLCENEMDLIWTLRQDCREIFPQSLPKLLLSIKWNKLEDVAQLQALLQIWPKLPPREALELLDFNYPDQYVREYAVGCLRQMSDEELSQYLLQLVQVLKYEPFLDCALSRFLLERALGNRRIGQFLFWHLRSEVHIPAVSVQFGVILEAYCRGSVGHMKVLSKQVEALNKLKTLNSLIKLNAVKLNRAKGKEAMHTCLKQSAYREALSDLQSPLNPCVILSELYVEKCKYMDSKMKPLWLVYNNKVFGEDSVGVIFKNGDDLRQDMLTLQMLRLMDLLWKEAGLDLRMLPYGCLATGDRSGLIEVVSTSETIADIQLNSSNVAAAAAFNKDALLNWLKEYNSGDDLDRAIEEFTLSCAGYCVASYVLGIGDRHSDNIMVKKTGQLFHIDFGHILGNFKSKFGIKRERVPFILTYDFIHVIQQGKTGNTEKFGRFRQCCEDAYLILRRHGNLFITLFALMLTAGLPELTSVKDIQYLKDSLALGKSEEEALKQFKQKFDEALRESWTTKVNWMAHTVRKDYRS
# test_description: PI3K beta kinase assay (Kinase-Glo luminescence)
# Type: biochemical
# Protocol: In a more preferred assay, the kinase reaction is performed in a final volume of 10 μL per well of a low volume non binding CORNING, 384 well black plate (Cat. No. #3676). The final concentrations of ATP and phosphatidyl inositol (PI) in the assay are 1 μM and 10 μg/mL respectively. […] IC50 is determined by a four parameter curve fitting routine that comes along with “excel fit”. […] Alternatively, IC50 values are calculated using idbsXLfit model 204, which is a 4 parameter logistic model.
measured_parameter: pIC50
Please treat pIC50 as minus the base-10 logarithm of the molar concentration.

Sample COc1cc(-c2ccc3ncc4c(c3c2)n(-c2cn(CCO)nc2C)c(=O)n4C)cnc1C ; pIC50 observed: 7.74

Sure, the documented pIC50 for COc1ccc(-c2ccc3ncc4c(c3c2)n(-c2c(C)cnn2C)c(=O)n4C)cc1OC is 6.82

The recorded pIC50 for CCOCc1cc(-c2ccc3ncc4c(c3c2)n(-c2c(C)nn(C)c2C)c(=O)n4C)cnc1N is 6.65

Just so you know, measured pIC50 for CCn1cc(-n2c(=O)n(C)c3cnc4ccc(-c5cnc(COC)c(OC(C)C)c5)cc4c32)c(C)n1 came out at 6.75

Form: compound = Cc1nn(C(C)C)cc1-n1c(=O)n(C)c2cnc3ccc(-c4cncc(C(O)(CF)CF)c4)cc3c21 ; pIC50 = 7.31

Memo: COCCOc1ccc(-c2ccc3ncc4c(c3c2)n(-c2cn(C)nc2C)c(=O)n4C)cc1OC , reported pIC50: 6.80

GET /value?item= CCOC(C)(C)c1cncc(-c2ccc3ncc4c(c3c2)n(-c2cn(C)nc2C)c(=O)n4C)c1 &field=pIC50 returns 7.04

response.value for CNc1ncc(-c2ccc3ncc4c(c3c2)n(-c2cn(C(C)C)nc2C)c(=O)n4C)cc1CO (field: pIC50) = 6.84

Please look at the following compound next.
For reference, reported pIC50 for CCNc1cc(-c2ccc3ncc4c(c3c2)n(-c2cn(C)nc2C)c(=O)n4C)cnc1CC stands at 7.74

###

# system: PI3K delta (Homo sapiens)
# Construct: for the full-length p110-d subunit are generated and fused by overlapping PCR; p85(iSH2) fusion partner (see partner chain) (N); His tag (C); Tn5 (Trichoplusia ni) or TiniPro insect cells
# Sequence (O00329 with tags, fused parts or gaps limits assumed): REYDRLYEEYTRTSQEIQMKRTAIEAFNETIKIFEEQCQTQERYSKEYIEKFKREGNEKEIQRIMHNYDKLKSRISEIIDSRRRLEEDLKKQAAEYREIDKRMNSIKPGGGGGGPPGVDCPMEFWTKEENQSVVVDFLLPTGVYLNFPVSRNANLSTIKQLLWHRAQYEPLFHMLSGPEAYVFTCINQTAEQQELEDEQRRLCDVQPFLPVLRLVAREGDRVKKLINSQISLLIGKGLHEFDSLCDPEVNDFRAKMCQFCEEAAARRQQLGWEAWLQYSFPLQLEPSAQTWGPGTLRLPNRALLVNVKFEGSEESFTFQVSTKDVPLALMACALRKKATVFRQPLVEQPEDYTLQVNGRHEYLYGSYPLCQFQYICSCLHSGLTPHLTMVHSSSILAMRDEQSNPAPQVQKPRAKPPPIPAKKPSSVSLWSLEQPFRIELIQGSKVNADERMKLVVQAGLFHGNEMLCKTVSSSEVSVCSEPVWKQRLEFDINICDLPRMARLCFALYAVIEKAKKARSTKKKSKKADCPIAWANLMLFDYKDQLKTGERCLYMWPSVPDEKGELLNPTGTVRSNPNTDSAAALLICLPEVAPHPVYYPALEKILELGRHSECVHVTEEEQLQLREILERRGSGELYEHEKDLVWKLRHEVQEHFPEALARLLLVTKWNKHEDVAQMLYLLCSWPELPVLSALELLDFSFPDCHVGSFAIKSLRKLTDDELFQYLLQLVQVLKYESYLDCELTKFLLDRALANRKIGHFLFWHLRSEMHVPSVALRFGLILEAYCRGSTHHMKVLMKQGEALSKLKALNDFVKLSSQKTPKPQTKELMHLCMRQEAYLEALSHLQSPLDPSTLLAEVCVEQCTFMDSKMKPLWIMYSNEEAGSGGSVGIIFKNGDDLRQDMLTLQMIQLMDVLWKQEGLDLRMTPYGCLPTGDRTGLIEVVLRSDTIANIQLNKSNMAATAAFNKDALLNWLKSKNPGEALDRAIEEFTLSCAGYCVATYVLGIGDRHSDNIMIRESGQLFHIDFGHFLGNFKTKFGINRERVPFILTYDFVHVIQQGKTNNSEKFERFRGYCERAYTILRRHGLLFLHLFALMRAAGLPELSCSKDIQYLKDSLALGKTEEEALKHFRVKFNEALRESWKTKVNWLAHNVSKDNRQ
# test_description: PI3K delta kinase assay (Kinase-Glo luminescence)
Mark 1 only for IC50 values smaller than 10 nM; exact matches and larger values are 0.

Data request: Lab log: compare recorded IC50 with 10 nM; is it strictly lower for CCOc1cncc(-c2ccc3ncc4c(c3c2)n(-c2cn(C)nc2C)c(=O)n4C)c1 [Example 56.1] ?
Data returned: 1

Data request: Field: below-cutoff. Rule: recorded IC50 strictly less than 10 nM. Subject: Cc1nn(C)cc1-n1c(=O)n(C)c2cnc3ccc(-c4cncc(OC(F)F)c4)cc3c21 [Example 183]
Data returned: 1

Data request: Please let me know if CCNc1ncc(-c2ccc3ncc4c(c3c2)n(-c2cn(C)nc2C)c(=O)n4C)cc1C(F)(F)F [Example 145.2] shows IC50 below 10 nM.
Data returned: 1

Data request: I'd appreciate it if you could check whether CO[C@@H]1CCN(c2ccc(-c3ccc4ncc5c(c4c3)n(-c3cn(C)nc3C)c(=O)n5C)cn2)C1 [Example 213.1] has IC50 smaller than 10 nM.
Data returned: 0

Data request: Decide: IC50 of Cc1nn(C(C)C)cc1-n1c(=O)n(C)c2cnc3ccc(-c4ccc(N)nc4)cc3c21 [Example 23.2] strictly below 10 nM?
Data returned: 0

Data request: Bench note: check whether CCOc1cc(-c2ccc3ncc4c(c3c2)n(-c2cn(CCO)nc2C)c(=O)n4C)cnc1C [Example 211.2] shows IC50 below 10 nM
Data returned: 1

New cases:
Data request: Is IC50 of CNc1ncc(-c2ccc3ncc4c(c3c2)n(-c2cn(C(C)C)nc2C)c(=O)n4C)cc1Cl [Example 146.3] strictly below 10 nM?
Data returned: 0
